Molecular target: p38α (Homo sapiens, UniProt Q16539)
Sequence (Q16539 whole entry): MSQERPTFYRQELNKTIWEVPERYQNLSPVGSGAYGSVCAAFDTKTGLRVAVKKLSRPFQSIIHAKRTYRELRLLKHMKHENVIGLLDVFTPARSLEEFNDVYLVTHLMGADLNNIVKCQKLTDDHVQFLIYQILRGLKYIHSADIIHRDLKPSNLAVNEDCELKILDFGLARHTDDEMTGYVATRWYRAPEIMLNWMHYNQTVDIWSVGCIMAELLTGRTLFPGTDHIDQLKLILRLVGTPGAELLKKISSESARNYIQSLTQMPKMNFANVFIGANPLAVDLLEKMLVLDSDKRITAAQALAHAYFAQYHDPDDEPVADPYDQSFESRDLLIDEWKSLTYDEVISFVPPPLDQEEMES
Assay: p38α/MK2 cascade assay
Format: biochemical
Conditions: Table 2; same p38α/MK2 cascade assay; 40 minutes preincubation; read-out: p38a/MK2 Cascade 40 min Pre-Incuabtion (% Inhibition): IC50
pIC50: −log10 of the molar value.
measurement label: pIC50

The cases that follow already have their pIC50 on record.
compound	pIC50
COc1ccc(Cn2c(C)cc(OCc3ccccc3CNC(=O)Nc3cc(C(C)(C)C)nn3-c3cccc(O)c3)c(C)c2=O)cc1Cl	8.04
Cc1ccc(C(=O)NCCO)cc1-n1c(C)cc(OCc2ccccc2CNC(=O)Nc2cc(C(C)(C)C)nn2-c2ccc(Cl)c(O)c2)c(Cl)c1=O	8.68
CNC(=O)c1ccc(C)c(-n2c(C)cc(OCc3ccc(F)cc3CNC(=O)Nc3cc(C(C)(C)C)nn3-c3ccc(C)cc3)c(Br)c2=O)c1	8.44

[a] COc1ccc(Cn2c(C)cc(OCc3ccccc3CNC(=O)Nc3cc(C(C)(C)C)nn3-c3ccc(O)c(Cl)c3)c(C)c2=O)cc1Cl
[b] COCCNC(=O)c1ccc(C)c(-n2c(C)cc(OCc3ccc(F)cc3CNC(=O)Nc3cc(C(C)(C)C)nn3-c3ccc(Cl)c(O)c3)c(Cl)c2=O)c1
[c] COCCNC(=O)c1ccc(C)c(-n2c(C)cc(OCc3ccccc3CNC(=O)Nc3cc(C(C)(C)C)nn3-c3cccc(OCCO)c3)c(Cl)c2=O)c1
[d] COc1ccccc1Cn1c(C)cc(OCc2ccccc2CNC(=O)Nc2cc(C(C)(C)C)nn2-c2cccc(O)c2)c(Cl)c1=O
Ask | List these items ordered by pIC50, big to small. Response field: labels, in requested order.
Reply | c, b, d, a

[P] COC(=O)c1ccc(C)c(-n2c(C)cc(OCc3ccccc3CNC(=O)Nc3cc(C(C)(C)C)nn3-c3ccc(C)cc3)c(Cl)c2=O)c1
[Q] COc1ccc(Cn2c(C)cc(OCc3ccccc3CNC(=O)Nc3cc(C(C)(C)C)nn3-c3ccc(Cl)c(O)c3)c(C)c2=O)cc1C#N
[R] COc1cc(Cn2c(C)cc(OCc3ccccc3CNC(=O)Nc3cc(C(C)(C)C)nn3-c3ccc(O)c(Cl)c3)c(Cl)c2=O)ccc1Cl
Ask | Sort entries by pIC50 from minimum to maximum value. A complete answer lists every label in the requested sequence.
Reply | R, Q, P
(R: 7.58, Q: 8.08, P: 8.60)
